test: Emission property of compound in CH3CN assessed as maximal wavelength by […]
Type: physicochemical
Recorded Activity for the following compounds
Lab book: enter the figure in nm, no units written.

- smiles_code: "COc1cccc(CO)c1OCC1=C2C(C)=CC(C)=[N+]2[B-](C)(C)n2c(C)cc(C)c21"
  Activity (nm): 521

We next turn to a different compound, shown below.
Find the measured Activity of "CC1=C(Br)C(C)=[N+]2C1=C(COc1ccccc1CO)c1c(C)c(Br)c(C)n1[B-]2(C)C" and report it.
557

* * *

test: Absorption property of compound in CH3CN assessed as maximal molar absorption coefficient by UV-vis spectrophotometer
Type: physicochemical
Hi! Just check whether Activity is below 80000 M⁻¹ cm⁻¹. Below gives Criterion met, equal or above gives Criterion not met.

Solved cases (8 shown):
- smiles_code: "CC(=O)OCc1ccccc1OCC1=C2C(C)=CC(C)=[N+]2[B-](C)(C)n2c(C)cc(C)c21"
  assigned_class: "Criterion not met"
- smiles_code: "COc1cccc(CO)c1OCC1=C2C(C)=CC(C)=[N+]2[B-](C)(C)n2c(C)cc(C)c21"
  assigned_class: "Criterion not met"
- smiles_code: "COc1cccc(COC(C)=O)c1OCC1=C2C(C)=C(I)C(C)=[N+]2[B-](C)(C)n2c(C)c(I)c(C)c21"
  assigned_class: "Criterion met"
- smiles_code: "COc1cccc(COC(C)=O)c1OCC1=C2C(C)=C(Br)C(C)=[N+]2[B-](C)(C)n2c(C)c(Br)c(C)c21"
  assigned_class: "Criterion met"
- smiles_code: "CC1=CC(C)=[N+]2C1=C(CO)c1c(C)cc(C)n1[B-]2(C)C"
  assigned_class: "Criterion not met"
- smiles_code: "CC(=O)OCc1ccccc1OCC1=C2C(C)=C(I)C(C)=[N+]2[B-](C)(C)n2c(C)c(I)c(C)c21"
  assigned_class: "Criterion met"
- smiles_code: "CC1=C(Br)C(C)=[N+]2C1=C(COc1ccccc1CO)c1c(C)c(Br)c(C)n1[B-]2(C)C"
  assigned_class: "Criterion met"
- smiles_code: "CC(=O)OCc1ccccc1OCC1=C2C(C)=C(Br)C(C)=[N+]2[B-](C)(C)n2c(C)c(Br)c(C)c21"
  assigned_class: "Criterion met"

Is 80000 M⁻¹ cm⁻¹ strictly greater than the molecule's reported Activity? molecule: "COc1cccc(COC(C)=O)c1OCC1=C2C(C)=CC(C)=[N+]2[B-](C)(C)n2c(C)cc(C)c21"
Criterion met

Is 80000 M⁻¹ cm⁻¹ strictly greater than the molecule's reported Activity? molecule: "COc1cccc(CO)c1OCC1=C2C(C)=C(I)C(C)=[N+]2[B-](C)(C)n2c(C)c(I)c(C)c21"
Criterion met

Is 80000 M⁻¹ cm⁻¹ strictly greater than the molecule's reported Activity? molecule: "COc1cccc(CO)c1OCC1=C2C(C)=C(Br)C(C)=[N+]2[B-](C)(C)n2c(C)c(Br)c(C)c21"
Criterion met

Is 80000 M⁻¹ cm⁻¹ strictly greater than the molecule's reported Activity? molecule: "CC1=CC(C)=[N+]2C1=C(COc1ccccc1CO)c1c(C)cc(C)n1[B-]2(C)C"
Criterion not met

Is 80000 M⁻¹ cm⁻¹ strictly greater than the molecule's reported Activity? molecule: "CC(=O)OCC1=C2C(C)=CC(C)=[N+]2[B-](F)(F)n2c(C)cc(C)c21"
Criterion not met

Is 80000 M⁻¹ cm⁻¹ strictly greater than the molecule's reported Activity? molecule: "CC1=C(I)C(C)=[N+]2C1=C(COc1ccccc1CO)c1c(C)c(I)c(C)n1[B-]2(C)C"
Criterion met
